The compounds listed here are annotated with their logPoctanol value.
experiment: Partition coefficient based on the octanol extraction method (logPoctanol); settings: octanol / 10 mmol/L phosphate buffer (pH 7.4)
reported_metric: logPoctanol value

compound=COc1ccc(-c2cn3cc([123I])ccc3n2)cc1 experimental_value=1.7
compound=COc1ccc2nc(-c3ccc([123I])cc3)cn2c1 experimental_value=2.3
compound="CN(C)c1ccc(-c2cn3cc([123I])ccc3n2)cc1 [[^123I]-IMPY, reference compound]" experimental_value=1.9
compound=Fc1ccc(-c2cn3cc([123I])ccc3n2)cc1 experimental_value=2.3

---

experiment: Transferability into brain and clearance (radioactive accumulation in brain after intravenous injection); conditions: rats, after 2 min.
Listing: Radioactive accumulation per unit weight in brain of selected molecules
reported_metric: Radioactive accumulation per unit weight in brain

molecule="CN(C)c1ccc(-c2cn3cc([123I])ccc3n2)cc1 [[^123I]-IMPY, reference compound]" experimental_value="1.19 % ID/g"
molecule=Fc1ccc(-c2cn3cc([123I])ccc3n2)cc1 experimental_value="1.00 % ID/g"
molecule=COc1ccc(-c2cn3cc([123I])ccc3n2)cc1 experimental_value="1.04 % ID/g"
molecule=COc1ccc2nc(-c3ccc([123I])cc3)cn2c1 experimental_value="1.26 % ID/g"
